test system: mammalian cell; assay: In vitro mammalian cell micronucleus test; format: cell-based; conditions: overall outcome in current dataset
Endpoint Label: in vitro MNT result

Example entries and their recorded answers appear below.
CC12CCCC(C)(CC1)C2=NO
positive
CC(=CC#N)CCc1ccccc1
positive
Cc1cccc2nccnc12
positive
CC(C)C12CCC(C)(O)C1C2 (centres unmarked)
positive

Lab note: next molecule to report on.
Ask: Could you tell me which in vitro MNT result is on file for COC1CC2CCC1(C)C2(C)C (centres unmarked) ?
Result: positive

----------
settings: weight of evidence of all available in vitro and in vivo data
Endpoint Label: genotoxic potential conclusion (WoE)

CC(=CC#N)CCc1ccccc1 [3-methyl-5-phenylpent-2-enenitrile]
not genotoxic
CC12CCCC(C)(CC1)C2=NO
not genotoxic
